# system.under.test: T1, P7bH1
# T1 chain: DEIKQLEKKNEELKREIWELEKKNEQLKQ
# test.method.notes: two-hybrid library CCNG1;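 further: natural log of median RNA to DNA barcode read ratio; higher means stronger binding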
What interaction score was measured for each of the following?
Numbers only.

1) DENKQLEKEIEELEREIWELEKKNEQLKQ [P11bH1] : -0.507
2) DKNKQLKKEIEELERENWELEKKIEQLKQ [P6bH1] : 1.39
3) DEIKQLEKEIEELERKNWELKKKNEQLKQ [P3bH1] : -0.271

Enquiry: Given the binder DKNKQLKKKIEELKRKIWELKKENEQLEQ [P12bH1] , what is its reported interaction score?
Return: -0.861
